// IC50 collected for FGFR4 (Homo sapiens)
API: value field is a number in nM; no unit string.

Record lookup: for FGFR4 (Homo sapiens), what IC50 belongs to COCCNc1cc(NC(=O)N2c3nc(C=O)ccc3C3(NC(=O)CN(C)C)CC2C3)ncc1C#N [Compound 30] ?
1.4

For the record CO[C@@H]1CCC[C@H]1Nc1cc(NC(=O)N2c3nc(C=O)ccc3C3(NC(=O)CN(C)C)CC2C3)ncc1C#N (relative stereo) [Compound 33] , what value of IC50 is listed for FGFR4 (Homo sapiens)?
0.3

// fetch FGFR4 (Homo sapiens) IC50 for COCCNc1cc(NC(=O)N2c3nc(C=O)ccc3C3(NC(=O)CO)CC2C3)ncc1C#N [Compound 47]
2.8

----------
- Target: FGFR4 (Homo sapiens)
- Sequence (P22455 22-802): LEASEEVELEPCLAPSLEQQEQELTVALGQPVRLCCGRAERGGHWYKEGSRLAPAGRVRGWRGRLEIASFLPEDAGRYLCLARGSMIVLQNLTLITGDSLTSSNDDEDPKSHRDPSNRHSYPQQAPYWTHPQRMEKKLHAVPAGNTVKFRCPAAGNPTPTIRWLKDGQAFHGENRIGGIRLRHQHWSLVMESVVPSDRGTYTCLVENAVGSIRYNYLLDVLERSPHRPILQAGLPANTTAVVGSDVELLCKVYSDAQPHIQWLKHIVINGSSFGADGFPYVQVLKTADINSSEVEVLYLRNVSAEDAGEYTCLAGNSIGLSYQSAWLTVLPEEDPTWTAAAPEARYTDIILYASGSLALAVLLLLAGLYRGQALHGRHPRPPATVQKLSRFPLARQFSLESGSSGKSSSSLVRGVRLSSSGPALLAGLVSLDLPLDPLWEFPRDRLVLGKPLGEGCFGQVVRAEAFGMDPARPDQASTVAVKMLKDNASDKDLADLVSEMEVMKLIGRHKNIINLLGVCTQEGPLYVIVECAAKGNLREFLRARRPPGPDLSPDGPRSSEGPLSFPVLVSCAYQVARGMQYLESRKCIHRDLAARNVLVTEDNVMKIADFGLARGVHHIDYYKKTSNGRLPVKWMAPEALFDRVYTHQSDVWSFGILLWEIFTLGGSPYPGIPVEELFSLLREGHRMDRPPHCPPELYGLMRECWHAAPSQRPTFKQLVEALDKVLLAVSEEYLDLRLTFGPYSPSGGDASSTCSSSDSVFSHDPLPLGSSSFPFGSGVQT
As shown below, each of these compounds has a reported pIC50 value.
Would you please state pIC50, meaning minus log10 of the concentration in mol/L, as a bare number?

Sample answers from the record:
>>> result_number("COCCNc1cc(NC(=O)N2c3nc(C=O)ccc3C3(NC(=O)N4CCOCC4)CC2C3)ncc1C#N [Compound 44]")
8.60
>>> result_number("CN1CCN(Cc2cc3c(nc2C=O)N(C(=O)Nc2ccc(C(F)(F)F)cn2)C2CC3(F)C2)C(=O)C1 [Compound 16]")
7.63
>>> result_number("COCCNc1cc(NC(=O)N2c3nc(C=O)c(CN4CCN(C)CC4=O)cc3C3(F)CC2C3)ncc1C#N [Compound 4]")
9.15

Provide the documented pIC50 with FGFR4 (Homo sapiens) as the system for COC1CCCC1Nc1cc(NC(=O)N2c3nc(C=O)c(CN4CCN(C)CC4=O)cc3C3(F)CC2C3)ncc1C#N (single isomer, unassigned) [Compound 12-P1]
8.68

----------
- Target: FGFR4 (Homo sapiens)
Measure: pIC50
Lab note — pIC50 values are minus log10 of concentrations in M.

Completed entries (count: 4):
>>> result_number("COCCNc1cc(NC(=O)N2c3nc(C=O)ccc3C3(N(C)C4CCOC4)CC2C3)ncc1C#N (stereo not drawn)")
8.92
>>> result_number("COCCNc1cc(NC(=O)N2c3nc(C=O)ccc3C3(OCCN4CCOCC4)CC2C3)ncc1C#N")
8.80
>>> result_number("COCCNc1cc(NC(=O)N2c3nc(C=O)ccc3C3(NC(=O)CN4CCCC4)CC2C3)ncc1C#N")
8.47
>>> result_number("COCCOc1cc(NC(=O)N2c3nc(C=O)c(CN4CCN(C)CC4=O)cc3C3(F)CC2C3)ncc1C#N")
8.31

# query: pIC50 | item COC1CCCC1Nc1cc(NC(=O)N2c3nc(C=O)c(CN4CCN(C)CC4=O)cc3C3(F)CC2C3)ncc1C#N (single isomer, unassigned) [Compound 12-P2] | system: FGFR4 (Homo sapiens)
7.96

Identify the measured pIC50 of `COCCNc1cc(NC(=O)N2c3nc(C=O)c(CN(C)C(=O)CN(C)C)cc3C3(F)CC2C3)ncc1C#N` for FGFR4 (Homo sapiens).
8.59

Please state recorded pIC50 (tested on FGFR4 (Homo sapiens)) of COC1CCCC1Nc1cc(NC(=O)N2c3nc(C=O)c(CN4CCN(C)CC4=O)cc3C3(F)CC2C3)ncc1C#N (single isomer, unassigned) [Compound 11-P1]
8.89

pIC50 of CO[C@@H]1CCC[C@H]1Nc1cc(NC(=O)N2c3nc(C=O)ccc3C3(F)CC2C3)ncc1C#N (relative stereo) on FGFR4 (Homo sapiens)?
9.10

Requested read-out pIC50, target or system FGFR4 (Homo sapiens), entry `COCCNc1cc(NC(=O)N2c3nc(C=O)c(CN4CCN(C)CC4)cc3C3(F)CC2C3)ncc1C#N`
8.29

----------
IC50 values recorded for FGFR4 (Homo sapiens)
Give your result in nM as a bare value.

Reference set, count: 4
>>> result_number("COCCNc1cc(NC(=O)N2c3nc(C=O)ccc3C3(NC(=O)c4ccc[nH]4)CC2C3)ncc1C#N")
1.6
>>> result_number("COCCNc1cc(NC(=O)N2c3nc(C=O)c(CN4CCOCC4=O)cc3C3CC2C3)ncc1C#N")
1.4
>>> result_number("COC[C@@H](C)Nc1cc(NC(=O)N2c3nc(C=O)c(CN4CCN(C)CC4=O)cc3C3(F)CC2C3)ncc1C#N")
2.1
>>> result_number("COCCNc1cc(NC(=O)N2c3nc(C=O)ccc3C3(OCCOC)CC2C3)ncc1C#N")
2.5

Below: the item to evaluate.
Can you share its IC50? I mean this compound: COC1CCCC1Nc1cc(NC(=O)N2c3nc(C=O)c(CN4CCN(C)CC4=O)cc3C3(F)CC2C3)ncc1C#N (single isomer, unassigned) [Compound 11-P2]
9.8
